molecular target: Serratia marcescens glutamine synthetase AGS1 variant AGS1m17(AD-), F81S, P185S, H212T, V214A, G218S, I303N plus tyrosine 398 to phenylalanine, SEQ ID NO:46 (Serratia marcescens, UniProt A0A0F6KS08, F81S/G218S/H212T/I303N/P185S/V214A/Y398F); assay: enzymatic assay, kinetics of AGS1m17(AD-)
parameterMeasured: Ki (mM)
Respond numerically; units are mM and should not be typed.

response.value for CP(=O)(O)CCC(N)C(=O)O (stereo not shown) [glufosinate] (field: Ki) = 23

---

biological target: Serratia marcescens glutamine synthetase AGS1 variant AGS1m21, N160S, G167R, V214M, SEQ ID NO:42 (Serratia marcescens, UniProt A0A0F6KS08, G167R/N160S/V214M); assay: enzymatic assay, kinetics of AGS1m21
parameterMeasured: pKi
Note on pKi: it is the negative log10 of concentration, concentration in mol/L.

Briefly, pKi measured for CP(=O)(O)CCC(N)C(=O)O (stereo not shown) [glufosinate] : 2.70

---

target: Serratia marcescens glutamine synthetase AGS1 variant AGS1(AD-), tyrosine 398 to phenylalanine, SEQ ID NO:44 (Serratia marcescens, UniProt A0A0F6KS08, Y398F); test: enzymatic assay, kinetics of AGS1(AD-)
parameterMeasured: pKi
Would you please state pKi, meaning minus log10 of the concentration in mol/L, as a bare number?

Reported pKi of CP(=O)(O)CCC(N)C(=O)O (stereo not shown) [glufosinate] : 4.89

---

molecular target: Serratia marcescens ATX 20345 glutamine synthetase AGS1, wild type, SEQ ID NO:2 (Serratia marcescens, UniProt A0A0F6KS08); construct: gene cloned as pAX685; dodecamer from known biology; experiment: enzymatic assay, kinetics of wild-type AGS1; format: biochemical
parameterMeasured: Ki (µM)
Give your result in µM as a bare value.

Noted for CP(=O)(O)CCC(N)C(=O)O (stereo not shown) [glufosinate] : its Ki reads 13
